# Test system: Staphylococcus aureus (MSSA)
# condition_summary: 24 h
Starred links: 1 amine or outer side, 2 acyl side, 3 side chain; linkers in the order of their positions; H or OH if unused. Positions of bridges follow the written chain, without caps; N, C: chain ends. Non-standard residues stand in square brackets, D forms with d. Residues, ends and D or L forms follow the SMILES beside them. ξ: configuration not given here. *: point of attachment. X17 = CSC[C@H](N)C(=O)NC(C)C(N[*:1])C(=O)[*:2]; ξAbu(βξ-NH2) = CC(N[*:3])C(N[*:1])C(=O)[*:2]; X41 = CC(NC(=O)C1CCCCC1)C(N[*:1])C(=O)[*:2]; Pentadecanoyl = CCCCCCCCCCCCCCC(=O)*; ξAsp(βξ-Me) = CC(C(=O)O)C(N)C(=O)O; ξAbu(3ξ-NH2) = CC(N)C(N)C(=O)O; Lauroyl = CCCCCCCCCCCC(=O)*; 3Abz = Nc1cccc(C(=O)O)c1; Pip = O=C(O)[CH]1CCCCN1; ξD = NC(CC(=O)O)C(=O)O; ξPip = O=C(O)C1CCCCN1; ξV = CC(C)C(N)C(=O)O; ξP = O=C(O)C1CCCN1
// values below are reported MIC

| compound | rel | MIC (mg/L) |
| --- | --- | --- |
| CCCCCCCCCCCCCCNC(=O)NC(CC(=O)O)C(=O)NC1C(=O)N2CCCCC2C(=O)NC(C(C)C(=O)O)C(=O)NC(CC(=O)O)C(=O)NCC(=O)NC(CC(=O)O)C(=O)NCC(=O)NC(C(C)NC(=O)CCN)C(=O)NC(C(C)C)C(=O)N2CCCC2C(=O)NC1C (centres unmarked) | = | 0.5 |
| CCCCCCCCCCCCCCC(=O)NC(CC(=O)O)C(=O)NC1C(=O)N2CCCCC2C(=O)NC(C(C)C(=O)O)C(=O)NC(CC(=O)O)C(=O)NCC(=O)NC(CC(=O)O)C(=O)NCC(=O)NC(C(C)NC(=O)CCC)C(=O)NC(C(C)C)C(=O)N2CCCC2C(=O)NC1C (centres unmarked) | = | 16 |
| CCCCCCCCCCCCCCC(=O)NC(CC(=O)O)C(=O)NC1C(=O)N2CCCCC2C(=O)NC(C(C)C(=O)O)C(=O)NC(CC(=O)O)C(=O)NCC(=O)NC(CC(=O)O)C(=O)NCC(=O)NC(C(C)NC(=O)C2CCCCC2)C(=O)NC(C(C)C)C(=O)N2CCCC2C(=O)NC1C (stereo not drawn) [Compound 206, C15-Amphomycin-9-cHexyl] (Pentadecanoyl-D[ξAbu(βξ-NH2)][Pip][ξAsp(βξ-Me)]DGDG[X41]VP; lactam 2-C; configuration not given here) | = | 8 |
| CCCCCCCCCCCC(=O)Nc1cccc(C(=O)NC(CC(=O)O)C(=O)NC2C(=O)N3CCCCC3C(=O)NC(C(C)C(=O)O)C(=O)NC(CC(=O)O)C(=O)NCC(=O)NC(CC(=O)O)C(=O)NCC(=O)NC(C(C)N)C(=O)NC(C(C)C)C(=O)N3CCCC3C(=O)NC2C)c1 (stereo not drawn) [Compound 296, C12-(M-Aminobenzoyl)-Amphomycin] ({Lauroyl-3Abz}-D[ξAbu(βξ-NH2)][Pip][ξAsp(βξ-Me)]DGDG[ξAbu(3ξ-NH2)]VP; lactam 2-C; configuration not given here) | = | 0.25 |
| CCCCCCCCCCCCCCC(=O)NC(CC(=O)O)C(=O)NC1C(=O)N2CCCCC2C(=O)NC(C(C)C(=O)O)C(=O)NC(CC(=O)O)C(=O)NCC(=O)NC(CC(=O)O)C(=O)NCC(=O)NC(C(C)NC(=O)[C@@H](N)CC2CCCCC2)C(=O)NC(C(C)C)C(=O)N2CCCC2C(=O)NC1C (some centres unmarked) | = | 16 |
| CCCCCCCCCCCCCCC(=O)NC(CC(=O)O)C(=O)NC1C(=O)N2CCCCC2C(=O)NC(C(C)C(=O)O)C(=O)NC(CC(=O)O)C(=O)NCC(=O)NC(CC(=O)O)C(=O)NCC(=O)NC(C(C)NC(=O)[C@@H](N)CSC)C(=O)NC(C(C)C)C(=O)N2CCCC2C(=O)NC1C (stereo partly drawn) [Compound 162, C15-Amphomycin-9-MeCys] (Pentadecanoyl-[ξD][ξAbu(βξ-NH2)][ξPip][ξAsp(βξ-Me)][ξD]G[ξD]G[X17][ξV][ξP]; lactam 2-C) | = | 8 |
| CCCCCCCCCCCCCCC(=O)NC(CC(=O)O)C(=O)NC1C(=O)N2CCCCC2C(=O)NC(C(C)C(=O)O)C(=O)NC(CC(=O)O)C(=O)NCC(=O)NC(CC(=O)O)C(=O)NCC(=O)NC(C(C)NC(=O)[C@@H]2CCCN2C(=O)[C@@H](N)CCCCN)C(=O)NC(C(C)C)C(=O)N2CCCC2C(=O)NC1C (some centres unmarked) | > | 64 |
| CCCCCCCC(=O)Nc1ccc(C(=O)NC(CC(=O)O)C(=O)NC2C(=O)N3CCCCC3C(=O)NC(C(C)C(=O)O)C(=O)NC(CC(=O)O)C(=O)NCC(=O)NC(CC(=O)O)C(=O)NCC(=O)NC(C(C)N)C(=O)NC(C(C)C)C(=O)N3CCCC3C(=O)NC2C)cc1 (centres unmarked) | = | 32 |
| CCCCCCCCCCCCCCC(=O)NC(CC(=O)O)C(=O)NC1C(=O)N2CCCCC2C(=O)NC(C(C)C(=O)O)C(=O)NC(CC(=O)O)C(=O)NCC(=O)NC(CC(=O)O)C(=O)NCC(=O)NC(C(C)NC(=O)[C@@H](N)Cc2ccccc2)C(=O)NC(C(C)C)C(=O)N2CCCC2C(=O)NC1C (some centres unmarked) | > | 64 |
| CCCCCCCCCCCCCCC(=O)NC(CC(=O)O)C(=O)NC1C(=O)N2CCCCC2C(=O)NC(C(C)C(=O)O)C(=O)NC(CC(=O)O)C(=O)NCC(=O)NC(CC(=O)O)C(=O)NCC(=O)NC(C(C)NC(=O)CNC(=O)[C@@H](N)CCCN)C(=O)NC(C(C)C)C(=O)N2CCCC2C(=O)NC1C (some centres unmarked) | = | 2 |

====

# Test system: Staphylococcus aureus (MSSA)
# condition_summary: 24 h
Starred links: 1 amine or outer side, 2 acyl side, 3 side chain; linkers in the order of their positions; H or OH if unused. Positions of bridges follow the written chain, without caps; N, C: chain ends. Non-standard residues stand in square brackets, D forms with d. Residues, ends and D or L forms follow the SMILES beside them. ξ: configuration not given here. *: point of attachment. ξAbu(3ξ-NHCOCH2NH2) = CC(NC(=O)CN)C(N)C(=O)O; ξAbu(βξ-NH2) = CC(N[*:3])C(N[*:1])C(=O)[*:2]; ξAsp(βξ-Me) = CC(C(=O)O)C(N)C(=O)O; Tridecanoyl = CCCCCCCCCCCCC(=O)*; X1 = O=C(Cc1ccc(N[*:1])cc1)[*:2]; ξAbu(3ξ-NH2) = CC(N)C(N)C(=O)O; Undecanoyl = CCCCCCCCCCC(=O)*; Lauroyl = CCCCCCCCCCCC(=O)*; X19 = CCCCCCCCCCS(=O)(=O)*; 3Abz = Nc1cccc(C(=O)O)c1; Pip = O=C(O)[CH]1CCCCN1; ξD = NC(CC(=O)O)C(=O)O; ξPip = O=C(O)C1CCCCN1; ξV = CC(C)C(N)C(=O)O; ξP = O=C(O)C1CCCN1
Checkbox rule: MIC lower than 1 µg/mL = true; MIC not lower than 1 µg/mL = false.

| molecule | category |
| --- | --- |
| CCCCCCCCCCCCCCCCNC(=O)NC(CC(=O)O)C(=O)NC1C(=O)N2CCCCC2C(=O)NC(C(C)C(=O)O)C(=O)NC(CC(=O)O)C(=O)NCC(=O)NC(CC(=O)O)C(=O)NCC(=O)NC(C(C)NC(=O)CN)C(=O)NC(C(C)C)C(=O)N2CCCC2C(=O)NC1C (stereo not drawn) | false |
| CCCCCCCCCCCC(=O)Nc1ccc(CC(=O)NC(CC(=O)O)C(=O)NC2C(=O)N3CCCCC3C(=O)NC(C(C)C(=O)O)C(=O)NC(CC(=O)O)C(=O)NCC(=O)NC(CC(=O)O)C(=O)NCC(=O)NC(C(C)NC(=O)CN)C(=O)NC(C(C)C)C(=O)N3CCCC3C(=O)NC2C)cc1 (stereo not drawn) [Compound 86, C12-(p-Apa)-Amphomycin-9-Gly] (Lauroyl-[X1]D[ξAbu(βξ-NH2)][Pip][ξAsp(βξ-Me)]DGDG[ξAbu(3ξ-NHCOCH2NH2)]VP; lactam 3-C; configuration not given here) | true |
| CCCCCCCCCCC(=O)Nc1cccc(C(=O)NC(CC(=O)O)C(=O)NC2C(=O)N3CCCCC3C(=O)NC(C(C)C(=O)O)C(=O)NC(CC(=O)O)C(=O)NCC(=O)NC(CC(=O)O)C(=O)NCC(=O)NC(C(C)N)C(=O)NC(C(C)C)C(=O)N3CCCC3C(=O)NC2C)c1 (stereo not drawn) [Compound 294, C11-(M-Aminobenzoyl)-Amphomycin] ({Undecanoyl-3Abz}-D[ξAbu(βξ-NH2)][Pip][ξAsp(βξ-Me)]DGDG[ξAbu(3ξ-NH2)]VP; lactam 2-C; configuration not given here) | true |
| CCCCCCCCCCCCC(=O)N[C@@H](CC(=O)OC)C(=O)NC(CC(=O)O)C(=O)NC1C(=O)N2CCCCC2C(=O)NC(C(C)C(=O)O)C(=O)NC(CC(=O)O)C(=O)NCC(=O)NC(CC(=O)O)C(=O)NCC(=O)NC(C(C)N)C(=O)NC(C(C)C)C(=O)N2CCCC2C(=O)NC1C (stereo partly drawn) [Compound 311, C13-(Asp-(OMe))-Amphomycin] (Tridecanoyl-D(OMe)[ξD][ξAbu(βξ-NH2)][ξPip][ξAsp(βξ-Me)][ξD]G[ξD]G[ξAbu(3ξ-NH2)][ξV][ξP]; lactam 3-C) | false |
| CCCCCCCCCCS(=O)(=O)NCC(=O)NC(CC(=O)O)C(=O)NC1C(=O)N2CCCCC2C(=O)NC(C(C)C(=O)O)C(=O)NC(CC(=O)O)C(=O)NCC(=O)NC(CC(=O)O)C(=O)NCC(=O)NC(C(C)NC(=O)CN)C(=O)NC(C(C)C)C(=O)N2CCCC2C(=O)NC1C (stereo not drawn) [Compound 102, CH3—(CH2)9—SO2-Gly-Amphomycin-9-Gly] (X19-GD[ξAbu(βξ-NH2)][Pip][ξAsp(βξ-Me)]DGDG[ξAbu(3ξ-NHCOCH2NH2)]VP; lactam 3-C; configuration not given here) | false |
